Target: Mitogen-activated protein kinase 13 (Homo sapiens)
Sequence (O15264 whole entry): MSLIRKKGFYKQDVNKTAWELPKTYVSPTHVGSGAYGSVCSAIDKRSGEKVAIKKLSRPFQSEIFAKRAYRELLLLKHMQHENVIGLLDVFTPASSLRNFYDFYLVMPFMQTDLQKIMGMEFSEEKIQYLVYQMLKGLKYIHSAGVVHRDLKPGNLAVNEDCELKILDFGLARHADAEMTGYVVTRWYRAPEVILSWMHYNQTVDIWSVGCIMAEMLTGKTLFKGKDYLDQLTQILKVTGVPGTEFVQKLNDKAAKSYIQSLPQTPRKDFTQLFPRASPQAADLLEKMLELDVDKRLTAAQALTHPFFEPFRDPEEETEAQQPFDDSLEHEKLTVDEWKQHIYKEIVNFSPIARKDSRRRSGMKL
Experiment: Inhibition of p38delta
pIC50: −log10 of the molar value.
Property Measured: pIC50

Prompt: Consider the compound CSc1ccccc1Nc1nc(N2CCNCC2)nc2c(NCC3CC3)ncnc12 and give its measured pIC50.
Response: < 4.40

====

Target: Ketohexokinase (Homo sapiens, UniProt P50053)
Sequence (P50053 whole entry): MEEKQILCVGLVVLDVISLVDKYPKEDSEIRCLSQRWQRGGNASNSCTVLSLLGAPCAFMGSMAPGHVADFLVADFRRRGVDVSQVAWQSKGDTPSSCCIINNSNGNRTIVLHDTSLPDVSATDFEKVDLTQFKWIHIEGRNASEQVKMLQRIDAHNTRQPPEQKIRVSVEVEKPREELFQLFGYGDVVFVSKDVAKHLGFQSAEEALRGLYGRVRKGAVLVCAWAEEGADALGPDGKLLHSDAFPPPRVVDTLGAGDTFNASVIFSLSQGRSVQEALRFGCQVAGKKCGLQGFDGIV
Assay: Inhibition of human ketohexokinase isoform C expressed in Escherichia coli BL21 (DE3) cells using D-fructose as substrate after 12 to 15 mins by fluorescence polarization assay
Property Measured: IC50 (µM)
Numbers only, in µM.

Look over these answered cases.
Structure String | Target Under Test | IC50 / µM
CSc1ccccc1Nc1nc(N2CCNCC2)nc2c(NCCC3CC3)ncnc12 | Ketohexokinase (Homo sapiens, UniProt P50053) | 0.05
CCc1ccccc1Nc1nc(N2CCNCC2)nc2c(NCC3CC3)ncnc12 | Ketohexokinase (Homo sapiens, UniProt P50053) | 0.13
CNCCN(C)c1nc(Nc2ccccc2SC)c2ncnc(NCC3CC3)c2n1 | Ketohexokinase (Homo sapiens, UniProt P50053) | 0.13
Cc1ccccc1Nc1nc(N2CCNCC2)nc2c(NC3CCCCC3)ncnc12 | Ketohexokinase (Homo sapiens, UniProt P50053) | 2.3

Provide each entry's IC50 from the list below.
1. c1ccc(Nc2nc(N3CCNCC3)nc3c(NCC4CC4)ncnc23)cc1
2. COc1ccccc1Nc1nc(N2CCNCC2)nc2c(NCC3CC3)ncnc12
3. C#CCNc1ncnc2c(Nc3ccccc3C)nc(N3CCNCC3)nc12
4. Cc1ccccc1Nc1nc(N2CCCNCC2)nc2c(NCC3CC3)ncnc12
5. Cc1ccccc1Nc1nc(N2CCNCC2)nc2c(NCc3cccs3)ncnc12
6. c1ccc(C2CC2)c(Nc2nc(N3CCNCC3)nc3c(NCC4CC4)ncnc23)c1

Response:
3.2
0.1
0.3
0.3
0.3
0.38

Prompt: Consider the compound CNc1ncnc2c(Nc3ccccc3C)nc(N3CCNCC3)nc12 and give its measured IC50.
Response: 0.4

====

Assay: Oral bioavailability in Sprague-Dawley rat at 10 mg/kg
Type: ADME, organism-based
Conditions: in vivo
Property Measured: bioavailability (%)
One number for each entry, in %.

Prompt: Consider the molecule CSc1ccccc1Nc1nc(N2CCNCC2)nc2c(NCC3CC3)ncnc12 and give its measured bioavailability.
Response: 34

====

Molecular target: Ketohexokinase (Homo sapiens)
Test: Inhibition of ketokinase isoform C in human HepG2 cells assessed as levels of fructose-1-phosphate preincubated for 30 mins followed by substrate addition measured after 3 hrs by LC-MS analysis
Format: cell-based
Property Measured: log10 IC50 (log10 of the value in nM)
Recall that a logarithmic scale is used here: each number is log10 of IC50 in nM.

Structure String | log10 IC50
CSc1ccccc1Nc1nc(N2CCNCC2)nc2c(NCc3nccs3)ncnc12 | 2.43
CSc1ccccc1Nc1nc(N2CCNCC2)nc2c(NCc3ccccn3)ncnc12 | 2.43
Cc1ccccc1Nc1nc(N2CCNCC2)nc2c(NCC3CC3)ncnc12 | 3.38
CSc1ccccc1Nc1nc(N2CC3(CNC3)C2)nc2c(NCC3CC3)ncnc12 | 2.56
CSc1ccccc1Nc1nc(N2CC(CN)C2)nc2c(NCC3CC3)ncnc12 | 2.77
COCCNc1ncnc2c(Nc3ccccc3SC)nc(N3CCNCC3)nc12 | 2.15
CSc1ccccc1Nc1nc(N2CCNCC2)nc2c(NCC3CC3)ncnc12 | 2.60

Prompt: Consider the molecule CSc1ccccc1Nc1nc(N2CCNCC2)nc2c(N)ncnc12 and give its measured log10 IC50.
Response: 1.89

====

Target: Ribosomal protein S6 kinase alpha-3 (Homo sapiens, UniProt P51812)
Sequence (P51812 whole entry): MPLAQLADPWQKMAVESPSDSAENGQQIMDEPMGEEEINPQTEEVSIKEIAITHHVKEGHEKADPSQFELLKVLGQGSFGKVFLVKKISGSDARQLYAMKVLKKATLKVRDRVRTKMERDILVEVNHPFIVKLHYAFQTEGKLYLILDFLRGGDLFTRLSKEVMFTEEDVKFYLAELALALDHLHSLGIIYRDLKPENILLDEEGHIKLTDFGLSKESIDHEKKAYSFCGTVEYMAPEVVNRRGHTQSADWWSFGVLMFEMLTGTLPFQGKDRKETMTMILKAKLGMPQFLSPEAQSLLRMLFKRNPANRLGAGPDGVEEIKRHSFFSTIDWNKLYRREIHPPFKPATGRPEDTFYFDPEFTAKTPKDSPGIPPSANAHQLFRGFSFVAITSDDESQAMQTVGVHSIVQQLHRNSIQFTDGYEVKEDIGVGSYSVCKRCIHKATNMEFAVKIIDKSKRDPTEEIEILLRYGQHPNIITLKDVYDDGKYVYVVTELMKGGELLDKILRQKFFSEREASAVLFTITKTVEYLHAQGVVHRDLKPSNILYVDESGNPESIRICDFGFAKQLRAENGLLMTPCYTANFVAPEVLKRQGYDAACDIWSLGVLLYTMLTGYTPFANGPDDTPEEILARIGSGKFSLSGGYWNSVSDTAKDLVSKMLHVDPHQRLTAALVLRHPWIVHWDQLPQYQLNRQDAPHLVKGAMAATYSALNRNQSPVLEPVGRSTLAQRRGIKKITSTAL
pIC50: −log10 of the molar value.
Property Measured: pIC50

Prompt: Consider the compound CSc1ccccc1Nc1nc(N2CCNCC2)nc2c(NCC3CC3)ncnc12 and give its measured pIC50.
Response: < 4.40

====

Molecular target: Serine/threonine-protein kinase PAK 3 (Homo sapiens)
Sequence (O75914 whole entry): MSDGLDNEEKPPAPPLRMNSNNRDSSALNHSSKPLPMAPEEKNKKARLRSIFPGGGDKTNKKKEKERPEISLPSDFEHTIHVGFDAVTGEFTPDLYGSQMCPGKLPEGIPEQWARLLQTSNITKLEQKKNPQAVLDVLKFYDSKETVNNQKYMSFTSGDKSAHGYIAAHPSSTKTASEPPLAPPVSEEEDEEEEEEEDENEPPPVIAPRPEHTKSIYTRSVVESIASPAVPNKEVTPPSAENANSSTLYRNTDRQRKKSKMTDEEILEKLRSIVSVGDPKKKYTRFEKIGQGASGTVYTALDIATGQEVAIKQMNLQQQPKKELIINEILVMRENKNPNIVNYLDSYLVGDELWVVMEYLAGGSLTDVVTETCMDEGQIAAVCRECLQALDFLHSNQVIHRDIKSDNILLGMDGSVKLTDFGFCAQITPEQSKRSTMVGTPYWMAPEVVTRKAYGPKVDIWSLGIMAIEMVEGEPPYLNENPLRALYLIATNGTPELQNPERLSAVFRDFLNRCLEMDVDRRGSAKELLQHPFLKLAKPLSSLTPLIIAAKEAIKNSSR
Property Measured: IC50

Prompt: Consider the molecule CSc1ccccc1Nc1nc(N2CCNCC2)nc2c(NCC3CC3)ncnc12 and give its measured IC50.
Response: > 40 µM

====

Target: UniProtKB P49841
Sequence (P49841 whole entry): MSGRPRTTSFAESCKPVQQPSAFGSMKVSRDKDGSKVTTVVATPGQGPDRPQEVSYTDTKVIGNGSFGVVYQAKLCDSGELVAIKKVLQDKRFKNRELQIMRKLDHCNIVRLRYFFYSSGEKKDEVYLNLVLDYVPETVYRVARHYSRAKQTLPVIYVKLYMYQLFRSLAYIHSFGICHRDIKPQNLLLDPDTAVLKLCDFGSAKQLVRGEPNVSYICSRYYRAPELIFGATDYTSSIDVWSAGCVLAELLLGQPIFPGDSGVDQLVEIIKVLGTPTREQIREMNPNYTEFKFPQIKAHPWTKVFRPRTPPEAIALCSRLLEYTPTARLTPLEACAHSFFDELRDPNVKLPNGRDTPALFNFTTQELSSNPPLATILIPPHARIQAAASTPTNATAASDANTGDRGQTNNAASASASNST
pIC50: −log10 of the molar value.
Property Measured: pIC50

Prompt: Consider the molecule CSc1ccccc1Nc1nc(N2CCNCC2)nc2c(NCC3CC3)ncnc12 and give its measured pIC50.
Response: < 4.40

====

Test: Clearance in Sprague-Dawley rat at 2 mg/kg, iv
Format: ADME, organism-based
Set-up: dose 2 mg/kg, route intravenous
Settings: in vivo
Property Measured: clearance

Prompt: Consider the molecule CSc1ccccc1Nc1nc(N2CCNCC2)nc2c(NCC3CC3)ncnc12 and give its measured clearance.
Response: 160 mL/min/kg

====

Target: Ketohexokinase (Homo sapiens, UniProt P50053)
Test: Inhibition of human ketohexokinase isoform C expressed in Escherichia coli BL21 (DE3) cells using D-fructose as substrate after 12 to 15 mins by fluorescence polarization assay
Please go through the items and note down their IC50.
Numbers only, in nM.

Look over these answered cases.
Structure String | Target Under Test | IC50 [nM]
Cc1ccccc1Nc1nc(N2CCC(N)CC2)nc2c(NCC3CC3)ncnc12 | Ketohexokinase (Homo sapiens, UniProt P50053) | 200
Cc1ccccc1Nc1nc(N2CCN(C)CC2)nc2c(NCC3CC3)ncnc12 | Ketohexokinase (Homo sapiens, UniProt P50053) | 1500
Brc1ccccc1Nc1nc(N2CCNCC2)nc2c(NCC3CC3)ncnc12 | Ketohexokinase (Homo sapiens, UniProt P50053) | 170
CSc1ccccc1Nc1nc(N2CCC[C@H](N)C2)nc2c(NCC3CC3)ncnc12 | Ketohexokinase (Homo sapiens, UniProt P50053) | 23
Cc1ccccc1Nc1nc(NC2CCNCC2)nc2c(NCC3CC3)ncnc12 | Ketohexokinase (Homo sapiens, UniProt P50053) | 710

Provide each entry's IC50 from the list below.
1. COCCNc1ncnc2c(Nc3ccccc3SC)nc(N3CCNCC3)nc12
2. Cc1ccccc1Nc1nc(N2CCC(CN)CC2)nc2c(NCC3CC3)ncnc12
3. Cc1cccc(Nc2nc(N3CCNCC3)nc3c(NCC4CC4)ncnc23)c1
4. CSc1ccccc1Nc1nc(N2CCNCC2)nc2c(NCc3cccs3)ncnc12
5. Fc1ccccc1Nc1nc(N2CCNCC2)nc2c(NCC3CC3)ncnc12
6. CSc1cccc(Nc2nc(N3CCNCC3)nc3c(NCC4CC4)ncnc23)c1
7. CSc1ccccc1Nc1nc(N2CCNCC2)nc2c(NCc3ccccn3)ncnc12
8. CCOc1ccccc1Nc1nc(N2CCNCC2)nc2c(NCC3CC3)ncnc12

Response:
1. 7
2. 70
3. 2800
4. 30
5. 1500
6. 2000
7. 9.8
8. 200

====

Assay: Metabolic stability of the compound in rat liver microsomes assessed as compound remaining after 10 mins
Assay type: ADME, Microsome
Conditions: read-out: Stability
Property Measured: remaining at 10 min (%)
Answers are plain numbers, in %.

Prompt: Consider the molecule CSc1ccccc1Nc1nc(N2CCNCC2)nc2c(NCC3CC3)ncnc12 and give its measured remaining at 10 min.
Response: 72

====

Experiment: Initial plasma concentration in Sprague-Dawley rat at 2 mg/kg, iv
Format: ADME, organism-based
Design: dose 2 mg/kg, route intravenous
Property Measured: C0 (nM)
Give bare numbers, in nM.

Prompt: Consider the molecule CSc1ccccc1Nc1nc(N2CCNCC2)nc2c(NCC3CC3)ncnc12 and give its measured C0.
Response: 600

====

Molecular target: Calcium/calmodulin-dependent protein kinase type II subunit alpha (Homo sapiens, UniProt Q9UQM7)
Sequence (Q9UQM7 whole entry): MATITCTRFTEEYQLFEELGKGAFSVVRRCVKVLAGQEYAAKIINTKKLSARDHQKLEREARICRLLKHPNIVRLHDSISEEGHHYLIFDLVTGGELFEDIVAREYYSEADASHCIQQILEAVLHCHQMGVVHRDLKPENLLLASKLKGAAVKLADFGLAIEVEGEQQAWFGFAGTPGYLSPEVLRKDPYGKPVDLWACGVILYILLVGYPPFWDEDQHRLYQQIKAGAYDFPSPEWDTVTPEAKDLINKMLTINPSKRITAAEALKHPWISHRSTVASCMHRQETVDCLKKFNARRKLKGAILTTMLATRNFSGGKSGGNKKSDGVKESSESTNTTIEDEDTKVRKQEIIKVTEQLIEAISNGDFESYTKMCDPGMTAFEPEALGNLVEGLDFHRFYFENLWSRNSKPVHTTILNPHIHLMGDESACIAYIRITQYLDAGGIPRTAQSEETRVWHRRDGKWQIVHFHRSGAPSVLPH
Test: Inhibition of CAMK2A
Property Measured: IC50

Prompt: Consider the compound CSc1ccccc1Nc1nc(N2CCNCC2)nc2c(NCC3CC3)ncnc12 and give its measured IC50.
Response: > 40 µM

====

Target: Serine/threonine-protein kinase 26 (Homo sapiens, UniProt Q9P289)
Sequence (Q9P289 whole entry): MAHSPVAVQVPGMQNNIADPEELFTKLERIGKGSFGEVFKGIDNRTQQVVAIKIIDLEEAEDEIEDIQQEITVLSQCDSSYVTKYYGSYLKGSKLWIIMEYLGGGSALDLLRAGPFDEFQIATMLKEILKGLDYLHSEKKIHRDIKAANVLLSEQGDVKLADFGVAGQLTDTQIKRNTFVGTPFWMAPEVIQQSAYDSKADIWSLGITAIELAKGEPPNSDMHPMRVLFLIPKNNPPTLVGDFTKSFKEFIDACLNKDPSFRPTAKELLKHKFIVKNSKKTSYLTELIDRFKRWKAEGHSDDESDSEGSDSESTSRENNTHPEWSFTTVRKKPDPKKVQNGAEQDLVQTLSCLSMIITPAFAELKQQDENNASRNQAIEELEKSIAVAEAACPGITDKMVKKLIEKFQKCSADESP
Property Measured: IC50

Prompt: Consider the compound CSc1ccccc1Nc1nc(N2CCNCC2)nc2c(NCC3CC3)ncnc12 and give its measured IC50.
Response: > 40 µM

====

Target: 5'-AMP-activated protein kinase catalytic subunit alpha-1 (Homo sapiens)
Sequence (Q13131 whole entry): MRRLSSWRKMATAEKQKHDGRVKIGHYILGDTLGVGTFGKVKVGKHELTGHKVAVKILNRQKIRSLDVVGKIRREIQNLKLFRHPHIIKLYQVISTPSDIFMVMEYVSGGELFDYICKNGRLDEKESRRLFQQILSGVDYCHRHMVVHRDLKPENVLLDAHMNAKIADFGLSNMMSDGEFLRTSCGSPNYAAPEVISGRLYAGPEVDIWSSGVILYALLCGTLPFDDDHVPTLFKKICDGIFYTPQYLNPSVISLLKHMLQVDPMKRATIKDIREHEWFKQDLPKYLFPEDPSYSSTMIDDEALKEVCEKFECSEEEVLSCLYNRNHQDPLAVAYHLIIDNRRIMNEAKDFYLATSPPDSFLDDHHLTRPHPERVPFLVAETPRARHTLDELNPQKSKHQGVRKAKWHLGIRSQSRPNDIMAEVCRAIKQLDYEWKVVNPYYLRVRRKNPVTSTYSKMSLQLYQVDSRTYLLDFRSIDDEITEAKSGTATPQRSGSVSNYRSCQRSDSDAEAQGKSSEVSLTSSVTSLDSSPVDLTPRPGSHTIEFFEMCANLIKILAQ
Assay: Inhibition of AMPKA1
pIC50: −log10 of the molar value.
Property Measured: pIC50

Prompt: Fill in the recorded pIC50 for this compound, with 5'-AMP-activated protein kinase catalytic subunit alpha-1 (Homo sapiens) as test system: CSc1ccccc1Nc1nc(N2CCNCC2)nc2c(NCC3CC3)ncnc12
Response: < 4.40
